OBSERVATION TYPE: melting point

>>> observed_value("COc1ccnc(C(=O)N[C@H]2COC[C@H](Cc3ccc(Cl)cc3)[C@@H](Cc3ccc(OC(F)(F)F)cc3)[C@H](C)OC2=O)c1OC(C)=O [compound 59]")
"80 to 85 °C"
>>> observed_value("CCC[C@H]1COC[C@H](N)C(=O)O[C@@H](C)[C@@H]1Cc1ccc(F)cc1.Cl")
"184 to 187 °C"
>>> observed_value("COc1ccnc(C(=O)N[C@H]2COC[C@H](CC3CC3)[C@@H](Cc3ccccc3)[C@H](C)OC2=O)c1OCOC(=O)C(C)C [compound 70]")
"37 to 41 °C"
>>> observed_value("COc1ccnc(C(=O)N[C@H]2COC[C@H](c3ccccc3)[C@@H](c3ccccc3)[C@H](C)OC2=O)c1O [compound 116]")
"64 to 72 °C"
>>> observed_value("COc1ccnc(C(=O)N[C@H]2COC[C@H](CC3CCCCC3)[C@@H](CC3CCCCC3)[C@H](C)OC2=O)c1OCOC(C)=O [compound 10]")
"50 to 56 °C"
>>> observed_value("C=C(C)CCC[C@@H]1[C@@H](Cc2ccccc2)COC[C@H](N)C(=O)O[C@H]1C.Cl")
"184 to 187 °C (dec.)"
>>> observed_value("COc1ccnc(C(=O)N[C@H]2COC[C@H](CCC(C)C)[C@@H](C3CCCC3)[C@H](C)OC2=O)c1OC(=O)C(C)C [compound 92]")
"47 to 51 °C"
>>> observed_value("COc1ccnc(C(=O)N[C@H]2COC[C@H](Cc3ccccc3)[C@@H](COc3ccccc3)[C@H](C)OC2=O)c1OC(C)=O [compound 95]")
"70 to 74 °C"
>>> observed_value("C[C@@H]1OC(=O)[C@@H](NC(=O)OC(C)(C)C)COC[C@H](Cc2ccccc2)[C@H]1Cc1ccc(OC(F)(F)F)cc1 [compound 223]")
"47 to 51 °C"
>>> observed_value("COc1ccnc(C(=O)N[C@H]2COC[C@H](Cc3ccc(Cl)cc3)[C@@H](C3CCCC3)[C@H](C)OC2=O)c1O [compound 149]")
"80 to 84 °C"
>>> observed_value("COc1ccnc(C(=O)N[C@H]2COC[C@H](Cc3ccccc3)[C@@H](c3ccccc3)[C@H](C)OC2=O)c1O [compound 132]")
"185 to 190 °C"
>>> observed_value("COc1cccc(C[C@H]2COC[C@H](NC(=O)c3nccc(OC)c3OCOC(C)=O)C(=O)O[C@@H](C)[C@@H]2Cc2cccc(OC)c2)c1 [compound 17]")
"51 to 55 °C"
>>> observed_value("COc1cccc(C[C@H]2COC[C@H](NC(=O)c3nccc(OC)c3O)C(=O)O[C@@H](C)[C@@H]2Cc2cccc(OC)c2)c1 [compound 124]")
"62 to 65 °C"
>>> observed_value("C[C@@H]1OC(=O)[C@@H](N)COC[C@H](Cc2ccccc2)[C@H]1Cc1ccccc1.Cl")
"196 to 202 °C"
>>> observed_value("C[C@@H]1OC(=O)[C@@H](NC(=O)OC(C)(C)C)COC[C@H](CC2CCCC2)[C@H]1CC1CCCC1 [compound 215]")
"95 to 99 °C"
>>> observed_value("COc1ccnc(C(=O)N[C@H]2COC[C@H](Cc3ccc(Cl)cc3)[C@@H](Cc3ccc(OC(F)(F)F)cc3)[C@H](C)OC2=O)c1OCOC(C)=O [compound 58]")
"158 to 161 °C"
>>> observed_value("COc1ccnc(C(=O)N[C@H]2COC[C@H](CCc3ccccc3)[C@@H](CCc3ccccc3)[C@H](C)OC2=O)c1OCOC(C)=O [compound 4]")
"42 to 47 °C"
>>> observed_value("COc1ccnc(C(=O)N[C@@H]2COC[C@@H](Cc3ccccc3)[C@H](COCC(C)C)[C@@H](C)OC2=O)c1OCOC(C)=O [compound 13]")
"44 to 48 °C"
>>> observed_value("COc1ccnc(C(=O)N[C@H]2COC[C@H](c3ccccc3)[C@@H](c3ccccc3)[C@H](C)OC2=O)c1OCOC(C)=O [compound 7]")
"59 to 64 °C"
>>> observed_value("COc1ccnc(C(=O)N[C@H]2COC[C@H](Cc3ccccc3)[C@@H](Cc3ccccc3)[C@H](C)OC2=O)c1O [Cmpd. 112]")
"69 to 72 °C"
>>> observed_value("COc1ccnc(C(=O)N[C@H]2COC[C@H](Cc3ccc(Cl)cc3)[C@@H](C3CCCC3)[C@H](C)OC2=O)c1OC(=O)C(C)C [compound 87]")
"73 to 77 °C"
>>> observed_value("COc1ccnc(C(=O)N[C@H]2COC[C@H](Cc3ccc(Cl)cc3)[C@@H](C3CCCC3)[C@H](C)OC2=O)c1OCOC(C)=O [compound 88]")
"56 to 60 °C"
>>> observed_value("COCCC(=O)Oc1c(OC)ccnc1C(=O)N[C@H]1COC[C@H](Cc2ccc(Cl)cc2)[C@@H](C2CCCC2)[C@H](C)OC1=O [compound 106]")
"55 to 60 °C"
>>> observed_value("C=C[C@@H]1[C@@H](Cc2ccccc2)COC[C@H](NC(=O)c2nccc(OC)c2OCOC(C)=O)C(=O)O[C@H]1C [compound 9]")
"42 to 48 °C"
>>> observed_value("COc1ccnc(C(=O)N[C@H]2COC[C@H](CCC(C)C)[C@@H](C3CCCC3)[C@H](C)OC2=O)c1O [compound 150]")
"38 to 43 °C"
>>> observed_value("C[C@@H]1OC(=O)[C@@H](N)COC[C@H](CC2CCCC2)[C@H]1CC1CCCC1.Cl")
"164 to 167 °C"
>>> observed_value("COc1ccnc(C(=O)N[C@H]2COC[C@H](Cc3ccc(C(F)(F)F)cc3)[C@@H](Cc3ccc(OC(F)(F)F)cc3)[C@H](C)OC2=O)c1OCOC(C)=O [compound 66]")
"57 to 60 °C"
